- Experimental System: c-Src SH2
- Assay Comment: SH2 binding enrichment of the phosphorylated peptide, bacterial display (enrichment ratio); higher = better substrate or ligand; peptides without Tyr show the background
Assign MET to entries whose SH2 binding enrichment meets or exceeds 0.6; assign NOT MET to the rest.

Asked: Entry FEPWVYSFSFE [PRKDC_Y647_YF] : is its SH2 binding enrichment no less than 0.6?
Given back: NOT MET

Would you kindly look at the next entry?
Asked: API: above_or_equal(metric=SH2 binding enrichment, cutoff=0.6) for item VASSLYDILAR [GLB1_Y294]
Given back: MET

###

- Experimental System: Grb2 SH2 (UniProt P62993)
- Sequence (P62993 whole entry, looked up): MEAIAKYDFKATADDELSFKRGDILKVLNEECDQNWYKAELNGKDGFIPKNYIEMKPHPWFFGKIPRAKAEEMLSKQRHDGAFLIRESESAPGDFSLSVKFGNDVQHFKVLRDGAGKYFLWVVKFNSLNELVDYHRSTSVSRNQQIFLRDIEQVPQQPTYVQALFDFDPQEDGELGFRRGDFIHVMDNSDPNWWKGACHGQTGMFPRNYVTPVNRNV
- Assay Comment: SH2 binding enrichment of the phosphorylated peptide, bacterial display (enrichment ratio); higher = better substrate or ligand; peptides without Tyr show the background
Metric: SH2 binding enrichment

These recorded examples may help you get a feel for the data.
The recorded SH2 binding enrichment for VEDQFYRVDCF [FHL1_Y208_C209R_YF] is 0.875

Notebook: MGHVNYGAFIN [GLB1_Y485_R482H_YF] , SH2 binding enrichment read as 0.882

Item: EFKKKYSDADI [CKAP5_Y1860_YF] | SH2 binding enrichment: 0.883

Just so you know, measured SH2 binding enrichment for GSCQEYTGAPY [NAXD_Y85_G81S] came out at 0.799

Per the record, MFNPCYGLFEF [NEDD4L_Y680_Y679C_YF] has SH2 binding enrichment of 0.929

Measured SH2 binding enrichment of QITQVCGFYDE [PPP2CA_Y127_Y127C] : 0.963

The recorded SH2 binding enrichment for entry TRSCKYLLLSM [NF1_Y491_Y489C] equals 1.41

// RLLRGYDQFAY [HLA-C_Y137_S140F] : SH2 binding enrichment value = 1.47

***
Sample AVRFIYTIDGS [DCX_Y105_G100A_YF] ; SH2 binding enrichment observed: 0.928

Form: sequence = DRTGHYLCNAC [GATA1_Y223] ; SH2 binding enrichment = 0.792

Quick note, SH2 binding enrichment for VGSIEYLKREW [KCNMA1_Y885] landed at 0.977

The measured SH2 binding enrichment associated with VERIGYDFIPT [CBS_Y308_G305R] reads 0.934

The sequence PADCRYFAFPQ [GAMT_Y222_YF] showed SH2 binding enrichment equal to 0.818

Entry under test: VLNDAYENLTR [SYNE2_Y3255] . Its SH2 binding enrichment was 3.35

Query SVTCTYSRALN [TP53_Y126_P128R] yields SH2 binding enrichment of 0.62

// recorded SH2 binding enrichment for DVLPEYKLQAP [KCNH2_Y388] : 1.02

###

- Tested on: Fer (mouse);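 note: 11-residue human phosphosite peptides and single-mutation variants displayed on the E. coli surface, counted by deep sequencing, each peptide's frequency after selection divided by its frequency in the unselected input library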;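 note: frequency after pTyr selection over input frequency; kinase dosed for 20-30% of maximal phosphorylation in three min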
- Assay Comment: phosphorylation enrichment, bacterial display (enrichment ratio); higher = better substrate or ligand; peptides without Tyr show the background
Response field class: string, computed from recorded phosphorylation enrichment by ranges LOW = under 0.4, MID = from 0.4 up to 0.6, HIGH = 0.6 and over

Examples from the recorded data:
Asked: In plain terms, what class is EFITRYIDSLK [PSMA7_Y110_A112D_YF] ?
Given back: MID

Asked: Which band does KVPCHYDDPGK [FOXG1_Y246_R244C] fall in?
Given back: HIGH

Asked: Which bin, given its phosphorylation enrichment, does HLVSEYQQYQD [TUBB3_Y422_D417H] occupy?
Given back: HIGH

Others:
Asked: GET /class?item= PARLEYYENEK [IRS1_Y46]
Given back: LOW

Asked: Please report the category associated with RRNTFYASIAK [ACADM_Y353_YF] , nothing else.
Given back: LOW

Asked: Which class holds TRSFDYMEGGD [FGF7_Y58_YF] ?
Given back: MID

Asked: Class? Entry: LERDIYNREEF [HLA-DPB1_Y59_Y57D]
Given back: HIGH

Asked: Record GYRPVYSEDEQ [CHST6_Y362] — which class?
Given back: HIGH

Asked: Category of DVLPEYKLQAP [KCNH2_Y388] , please.
Given back: MID

Asked: Kindly identify the class of SVSVNYGDLVQ [GRAP_Y101_Q104L] .
Given back: MID

All values here come from the supplement of paper PMC10065799.
